molecular target: PIM1 (Homo sapiens); construct: purchased in-house DSF panel (SGC Frankfurt); assay: DSF; assay type: binding
Sequence (P11309 whole entry): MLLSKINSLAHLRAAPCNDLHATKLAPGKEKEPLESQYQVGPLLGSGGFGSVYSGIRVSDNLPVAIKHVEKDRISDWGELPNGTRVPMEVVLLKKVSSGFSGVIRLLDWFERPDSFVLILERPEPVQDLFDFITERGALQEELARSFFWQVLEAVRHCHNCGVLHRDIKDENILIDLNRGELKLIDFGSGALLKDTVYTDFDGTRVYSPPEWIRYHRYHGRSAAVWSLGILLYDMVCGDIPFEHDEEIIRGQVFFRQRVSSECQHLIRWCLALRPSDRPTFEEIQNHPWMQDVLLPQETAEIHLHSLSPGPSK
Class True: ΔTm PIM1 at least 2 °C. Class False: ΔTm PIM1 below 2 °C.

QUERY: Is reported ΔTm PIM1 greater than or equal to 2 °C here: COC(=O)c1cc(Nc2ccnc(NCc3ccc(NC(=O)OC(C)(C)C)cc3)n2)[nH]n1 [21i]
RESULT: False

QUERY: Can COC(=O)c1cc(Nc2ccnc(NCCOCCNC(=O)OC(C)(C)C)n2)[nH]n1 [21d] be said to have ΔTm PIM1 at or above 2 °C?
RESULT: True

QUERY: Please indicate if the recorded ΔTm PIM1 for CC(C)OC(=O)c1cc(Nc2ccnc(NCc3ccc(NC(=O)OC(C)(C)C)cc3)n2)n[nH]1 [42d] meets or exceeds 2 °C.
RESULT: False

QUERY: Could you please find out whether CC(C)(C)OC(=O)Nc1ccc(CNc2nccc(Nc3cc(C(=O)OC(C)(C)C)[nH]n3)n2)cc1 [43d] has ΔTm PIM1 that meets 2 °C or exceeds it?
RESULT: False

QUERY: Determine whether this compound has ΔTm PIM1 no lower than 2 °C: N#CCc1ccc(Nc2nccc(Nc3cc(C4CC4)[nH]n3)n2)cc1 [compound 1, reference compound]
RESULT: True
